- System: protein kinase
- Protocol Text: HTS ATP-utilizing enzyme assay, off-chip mobility-shift format (Caliper HTS 250)
- Assay type: biochemical, human
- Assay Setup: test compound 10 μM; active = activity greater than three-sigma from the mean of the predominately inactive population for that enzyme
Quantity Name: protein kinase against which the compound exhibits inhibitory activity (Table 3)

Below are worked cases with known answers.
Molecule	Recorded Measurement
Cc1ccc(NCc2nnc(SCc3nnc(-c4ccccc4)o3)n2Cc2ccco2)c(C)c1	AURORA-A
COc1ccccc1-n1c(SCCC2COCCN2)nnc1-c1cccc(Cl)c1 (stereo not drawn)	ROCK2
COc1ccccc1-n1c(SCc2ccc(F)c(F)c2)nnc1-c1cccc(Cl)c1	ROCK2
COc1ccccc1-n1c(SCC(=O)Nc2ccccc2)nnc1-c1ccccc1O	AURORA-A
CCOC(=O)c1ccc(CSc2nnc(Cc3ccc(OC)cc3)[nH]2)o1	FLT-3

# ---- query molecule ----
Any idea what protein kinase against which the compound exhibits inhibitory activity (Table 3) came out for "C=C(C)Cn1c(SCC(=O)NN)nnc1-c1ccc(Br)cc1" on protein kinase?
LCK

----------
- System Name: protein kinase
- Protocol Text: HTS ATP-utilizing enzyme assay, off-chip mobility-shift format (Caliper HTS 250)
- Type: biochemical, human
- Assay Setup: kinase(s) for which the compound exhibits protein kinase inhibitory activity; test compound 10 μM; active = greater than three-sigma from the mean activity of inactive compounds

Record Smiles	Kinase
CCn1c(COc2ccc(Cl)c(C)c2)nnc1SCC(=O)N1CCCCC1	FYN

----------
- Tested on: protein kinase
- Protocol Text: HTS ATP-utilizing enzyme assay, off-chip mobility-shift format (Caliper HTS 250)
- Assay type: biochemical, human
- Assay Setup: test compound 10 μM; active = activity greater than three-sigma from the mean of the predominately inactive population for that enzyme
Quantity Name: protein kinase against which the compound exhibits inhibitory activity (Table 3)

Molecule	Recorded Measurement
Cn1c(SCC(=O)NN(Br)C(=O)c2ccccc2)nnc1C1CCCCC1	SGK1
COc1ccccc1-n1c(SC(C)C(=O)NCc2ccco2)nnc1-c1ccccc1 (stereo not drawn)	AKT1
COc1cccc(OCc2nnc(SC)n2C)c1	AURORA-A
COc1ccccc1-n1c(SCCC(=O)OCc2ccccc2)nnc1C1CCCCC1	AURORA-A
CC(C)=CCSc1nnc(CCC2CCCC2)n1CCCN1CCOCC1	GSK3-α
Oc1ccc(-c2nnc(SCCN3CCOCC3)n2-c2ccccc2)cc1	GSK3-α
COc1ccccc1-n1c(SCCN2CCCCC2)nnc1-c1cccnc1	AURORA-A
c1cncc(-c2nnc(SCCN3CCCCC3)[nH]2)c1	GSK3-α

I would be grateful if you could share the reported protein kinase against which the compound exhibits inhibitory activity (Table 3) for "Cc1ccc(S(=O)(=O)N(Cc2nnc(SCc3ccc(Cl)cc3Cl)n2-c2ccccc2)c2cccc(Cl)c2)cc1" .
LCK

Given the molecule "COc1ccccc1-n1c(SCC(=O)Nc2cccc(NC(=O)c3ccco3)c2)nnc1-c1ccccc1O" , what is its reported protein kinase against which the compound exhibits inhibitory activity (Table 3)?
AURORA-A

Look at this molecule and give its reported protein kinase against which the compound exhibits inhibitory activity (Table 3). "COc1ccccc1-n1c(SCC(=O)Nc2ccccc2)nnc1-c1cccc(Cl)c1"
ROCK2

----------
- System Name: protein kinase
- Protocol Text: HTS ATP-utilizing enzyme assay, off-chip mobility-shift format (Caliper HTS 250)
- Type: biochemical, human
- Assay Setup: kinase(s) for which the compound exhibits protein kinase inhibitory activity; test compound 10 μM; active = greater than three-sigma from the mean activity of inactive compounds
Quantity Name: Kinase

Molecule	System Name	Quantity Name	Recorded Measurement
CNC(=O)CSc1nnc(-c2cc3ccccc3cc2O)n1C	protein kinase	Kinase	FYN
CCn1c(SCC(=O)Nc2cc(C)ccc2OC)nnc1-c1ccc(S(=O)(=O)N2CCCCCC2)cc1	protein kinase	Kinase	DAPK1
CCc1nnc(NC(=O)CSc2nnc(-c3cccc(C)c3)n2CC)s1	protein kinase	Kinase	LCK
CCn1c(S)nnc1-c1cc2ccccc2cc1O	protein kinase	Kinase	AURORA-A
NC(=O)CSc1nnc(CNc2ccc(F)cc2)n1-c1ccccc1	protein kinase	Kinase	FLT-3

--- query ---
Need Kinase of "CC(C)OC(=O)CSc1nnc(-c2cccnc2)n1Cc1ccco1" , thanks.
AKT1

----------
- System Name: protein kinase
- Protocol Text: HTS ATP-utilizing enzyme assay, off-chip mobility-shift format (Caliper HTS 250)
- Assay type: biochemical, human
- Assay Setup: kinase(s) for which the compound exhibits protein kinase inhibitory activity; test compound 10 μM; active = greater than three-sigma from the mean activity of inactive compounds
Quantity Name: Kinase

As a guide, the following entries are already answered.
Compound	Quantity Name	Recorded Measurement
COc1ccc(-c2nnc(SCC(N)=O)n2-c2ccccc2)cc1	Kinase	PDK1
CCn1c(COc2ccc(Cl)c(C)c2)nnc1SCC(=O)O	Kinase	MSK1
COc1ccccc1-n1c(S)nnc1-c1cccnc1	Kinase	AURORA-A
CCn1c(COc2cccc(C)c2)nnc1SCC(=O)N1CCCCC1	Kinase	FYN
COc1ccc(-n2c(SCC#N)nnc2-c2cccnc2)cc1	Kinase	AURORA-A

# next compound below
May I ask what Kinase has been recorded for "O=C(CSc1nncn1-c1cccnc1)Nc1ccccc1[N+](=O)[O-]" ?
FYN

----------
- System Name: protein kinase
- Protocol Text: HTS ATP-utilizing enzyme assay, off-chip mobility-shift format (Caliper HTS 250)
- Assay type: biochemical, human
- Assay Setup: kinase(s) for which the compound exhibits protein kinase inhibitory activity; test compound 10 μM; active = greater than three-sigma from the mean activity of inactive compounds

Record Smiles	Kinase
CCc1ccc(OCc2nnc(SCC(=O)O)n2Cc2ccccc2)cc1	AKT1
COCCn1c(SCC(=O)c2ccccc2)nnc1-c1ccc(OC)cc1	AKT1
Cn1c(Cn2cnc3ccccc32)nnc1SCC(=O)Nc1ccccc1Cl	FYN

----------
- System Name: protein kinase
- Protocol Text: HTS ATP-utilizing enzyme assay, off-chip mobility-shift format (Caliper HTS 250)
- Assay type: biochemical, human
- Assay Setup: kinase(s) for which the compound exhibits protein kinase inhibitory activity; test compound 10 μM; active = greater than three-sigma from the mean activity of inactive compounds
Quantity Name: Kinase

Illustrative cases are given below, each with its answer.
Compound	Kinase
CCOC(=O)CN(C(=O)CSc1nnc(-c2ccncc2)n1-c1ccccc1)c1ccccc1	PDGFRR-α
COCCCn1c(C)nnc1SCC(=O)NCc1ccco1	FYN
COc1ccc(OCc2nnc(SCC(=O)N3CCCc4ccccc43)n2-c2ccc(C)cc2)cc1	LCK
O=C(CSc1nnc(CCN2CCOCC2)n1-c1ccc(F)cc1)c1ccccc1	FYN
O=C(CSc1nnc(-c2ccccc2O)n1Cc1ccco1)OCc1ccccc1	GSK3-α

Now examine the next entry.
Please give the measured Kinase for this compound: "CCn1c(SCC(=O)O)nnc1-c1cc2c(C)nn(-c3ccccc3)c2s1"
FYN

----------
- Tested on: protein kinase
- Protocol Text: HTS ATP-utilizing enzyme assay, off-chip mobility-shift format (Caliper HTS 250)
- Type: biochemical, human
- Assay Setup: test compound 10 μM; active = activity greater than three-sigma from the mean of the predominately inactive population for that enzyme
Quantity Name: protein kinase against which the compound exhibits inhibitory activity (Table 3)

Compound	Recorded Measurement
O=C(CSc1nnc(-c2ccc(O)cc2)n1-c1ccccc1)NNC(=O)c1ccc(Cl)cc1	AURORA-A
COc1ccc(-c2nnc(SCc3ccc(Cl)cc3)n2-c2ccccc2)cc1OC	CDK1
COc1ccc(NCc2nnc(SCCN3CCCCC3)n2-c2ccc(OC)cc2)cc1	FYN
COCCCn1c(SCc2ccccc2Cl)nnc1-c1ccc(C(C)(C)C)cc1	CDK1
CSc1nnc(COc2ccccc2C)n1Cc1ccccc1	MSK2
N#Cc1ccccc1CSc1nnc(-c2ccc(OC(F)(F)F)cc2)[nH]1	AURORA-A

Consider the compound "COc1ccccc1-n1c(SCc2ccc(C(=O)O)cc2)nnc1-c1cccc(Cl)c1" and give its measured protein kinase against which the compound exhibits inhibitory activity (Table 3).
AURORA-A

Consider the compound shown here: COc1ccccc1-n1c(SCC(=O)Nc2cccc(NC(=O)C3CCCO3)c2)nnc1-c1ccccc1O (stereo not shown) What is its recorded protein kinase against which the compound exhibits inhibitory activity (Table 3)?
AURORA-A

----------
- System Name: protein kinase
- Protocol Text: HTS ATP-utilizing enzyme assay, off-chip mobility-shift format (Caliper HTS 250)
- Assay type: biochemical, human
- Assay Setup: kinase(s) for which the compound exhibits protein kinase inhibitory activity; test compound 10 μM; active = greater than three-sigma from the mean activity of inactive compounds

Molecule	System Name	Kinase
Cc1ccc(NC(=O)C(C)Sc2nnc(-c3ccc(O)cc3)n2-c2ccccc2)cc1 (stereo not shown)	protein kinase	HCK
Cc1nnc(SCC(=O)Nc2cccc(Cl)c2)n1C	protein kinase	DAPK1

----------
- System Name: protein kinase
- Protocol Text: HTS ATP-utilizing enzyme assay, off-chip mobility-shift format (Caliper HTS 250)
- Type: biochemical, human
- Assay Setup: kinase(s) for which the compound exhibits protein kinase inhibitory activity; test compound 10 μM; active = greater than three-sigma from the mean activity of inactive compounds
Quantity Name: Kinase

Guide cases for Kinase, answers given:
Compound	System Name	Quantity Name	Recorded Measurement
COc1cccc(OCc2nnc(SCC(=O)O)n2Cc2ccccc2)c1	protein kinase	Kinase	MSK1
O=C(O)CSc1nnc(-c2ccc(S(=O)(=O)N3CCOCC3)cc2)n1-c1ccccc1	protein kinase	Kinase	CHEK2
Cc1ccc(NC(=O)CSc2nnc(CNc3ccc(F)cc3)n2CC2CCCO2)cc1 (stereo not shown)	protein kinase	Kinase	AURORA-A
CCn1c(S)nnc1CNc1cccc(C(F)(F)F)c1	protein kinase	Kinase	GSK3-α
CCn1c(SCC(=O)Nc2nc(C)cs2)nnc1-c1ccc(S(=O)(=O)N2CCN(C)CC2)cc1	protein kinase	Kinase	FYN
Cc1ccc(-n2c(S)nnc2-c2ccccc2O)cc1	protein kinase	Kinase	AURORA-A
Cn1c(SCC(=O)Nc2cccc(O)c2)nnc1-c1ccco1	protein kinase	Kinase	CSK
Cc1csc(NC(=O)CSc2nnc(-c3cccnc3)n2C)n1	protein kinase	Kinase	PAK2

Consider the compound "CCOc1ccc(Nc2nnc(SCC(=O)c3cc(C(C)(C)C)c(O)c(C(C)(C)C)c3)n2-c2ccc(OCC)cc2)cc1" and give its measured Kinase.
FYN

Reported Kinase, compound "Cn1c(SCC(=O)CC(=O)Nc2ccccc2)nnc1-c1ccc(O)cc1" : ____
AURORA-A

Report Kinase for "Cn1c(SCC(=O)N2CCOCC2)nnc1-c1ccc(O)cc1" please.
AURORA-A

Reported Kinase for "O=C(CSc1nnc(Cn2nnc(-c3ccccc3)n2)n1-c1ccccc1)Nc1ccccc1" : what is it?
GSK3-α

Give the measured Kinase of Cc1ccc(OCc2nnc(SC(C)C(=O)O)n2-c2ccccc2)cc1 (stereo not shown) .
AURORA-A

Reported Kinase, compound "NC(=O)CSc1nnc(-c2cc3ccccc3cc2O)n1Cc1ccco1" : ____
SRC
